Biological target: T1, human IL-22 (human, UniProt Q9GZX6 34-179)
T1 construct: also called hIL-22; hIL22
T1 sequence (looked up): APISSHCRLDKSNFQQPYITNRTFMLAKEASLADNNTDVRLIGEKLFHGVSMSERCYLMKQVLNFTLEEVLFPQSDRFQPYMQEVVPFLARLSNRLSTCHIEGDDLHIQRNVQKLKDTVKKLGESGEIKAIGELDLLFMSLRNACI
Assay: SPR (SierraSensors SPR-2), hIL-22 immobilized on chip, antibody injected, Langmuir 1:1 model
Result Type: koff (s⁻¹)
State the answer as a number, implicitly in s⁻¹.

Solved cases below.
| Binder | Result Unit | koff |
| --- | --- | --- |
| CPS-17 (antibody, V domains shown, Mutant of humanized hum10, whole antibody expressed in CHO cells; also called LC-04 / HC-49) VH: QVQLVQSGAEVKKPGASVKVSCKASGYIFRSYWIHWIRQPPGKGLEWIGRIYPGTGNTYYNRKFKGRVTISADKSISTAYLQWSSLKASDTAMYYCARSYMYSVAYWGQGTLVTVSS VL: AIQLTQSPSSLSASVGDRVTITCSASSSVSYMHWYLQKPGQSPQLLIYETRKLASGVPSRFSGSGSGTDFTFTISSLEAEDAATYYCQQWSSNPYITFGQGTKVEIKR | s⁻¹ | 6.94e-05 |
| CPE-LC-E049K (antibody, V domains shown, One of the mutant antibodies of the CPE library made from hum10 (CDR positions substituted); built here as hum10 with E49K in the light chain, read from its name) VH: QVQLVQSGAEVKKPGASVKVSCKASGYIFTSYWIHWIRQPPGKGLEWIGRIYPGTGNTYYNEKFKGRVTISADKSISTAYLQWSSLKASDTAMYYCARSYDSSCAYWGQGTLVTVSS VL: AIQLTQSPSSLSASVGDRVTITCSASSSVSYMHWYLQKPGQSPQLLIYKTSKLASGVPSRFSGSGSGTDFTFTISSLEAEDAATYYCQQWSSNPYITFGQGTKVEIKR | s⁻¹ | 5.93e-05 |

Next binder, koff to be filled in.
get_value(item= CPS-14 (antibody, V domains shown, Mutant of humanized hum10, whole antibody expressed in CHO cells; also called LC-04 / HC-31) VH: QVQLVQSGAEVKKPGASVKVSCKASGYIFTSYWIHWIRQPPGKGLEWIGRIYPGTGRTYYNRKFKGRVTISADKSISTAYLQWSSLKASDTAMYYCARSYDYSVAYWGQGTLVTVSS VL: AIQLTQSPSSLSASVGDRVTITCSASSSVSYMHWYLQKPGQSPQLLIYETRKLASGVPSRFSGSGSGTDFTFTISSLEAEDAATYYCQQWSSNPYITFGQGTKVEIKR , readout=koff) returns 3.55e-05
